Experiment: Pharmacokinetics in rat and monkey
Assay type: in vivo
Details: in vivo; after intravenous dosing
Excerpt: The pharmacokinetics of Compound (16) was studied in rat and monkey after intravenous and oral administration in solution (ethanol/polyethylene glycol/water, 1/5/4) or SSV.
Property Measured: half-life

Need half-life of `Cc1cc(Cc2ccc(=O)[nH]n2)n(C)c1C(=O)c1ccc(Cl)cc1` , thanks. 2 to 3 h

----------
biological target: UniProt:P35354; assay: radiometric assay, COX II inhibition (human recombinant, baculovirus expressed, partially purified); assay type: biochemical; design: A 1.8 Kb DNA fragment containing the coding region of human COX II was generated by PCR; made in house; host or cells: Sf9 insect cells, baculovirus; details: radiometric assay, human recombinant baculovirus expressed enzyme; read-out: COX II IC50 (Table 2)
Sequence (P35354 18-604): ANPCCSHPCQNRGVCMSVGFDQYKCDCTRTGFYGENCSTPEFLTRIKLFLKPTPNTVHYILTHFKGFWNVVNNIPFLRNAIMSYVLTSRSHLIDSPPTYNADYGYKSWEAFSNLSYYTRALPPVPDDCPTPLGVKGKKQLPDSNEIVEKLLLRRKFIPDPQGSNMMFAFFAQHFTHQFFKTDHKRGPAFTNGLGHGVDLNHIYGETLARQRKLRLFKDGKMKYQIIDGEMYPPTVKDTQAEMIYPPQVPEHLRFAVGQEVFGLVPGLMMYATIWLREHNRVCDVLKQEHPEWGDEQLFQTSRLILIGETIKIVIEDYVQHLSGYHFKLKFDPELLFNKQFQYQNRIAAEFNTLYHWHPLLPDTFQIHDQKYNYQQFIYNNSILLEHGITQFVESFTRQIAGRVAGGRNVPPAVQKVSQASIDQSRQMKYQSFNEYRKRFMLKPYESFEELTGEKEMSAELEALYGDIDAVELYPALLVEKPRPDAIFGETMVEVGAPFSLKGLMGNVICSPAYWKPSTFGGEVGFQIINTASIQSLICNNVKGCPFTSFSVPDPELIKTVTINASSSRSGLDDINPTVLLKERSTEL
Property Measured: IC50
Write the numeric value and append its unit.

These recorded examples may help you get a feel for the data.
molecule="COCCn1nc(Cc2cc(C)c(C(=O)c3ccc(Cl)cc3)n2C)ccc1=O [Compound 124]" tested_on=UniProt:P35354 property_measured=IC50 endpoint_result="0.54 µM"
molecule="Cc1cc(Cc2ccc(=O)n(Cc3ccc(F)cc3)n2)n(C)c1C(=O)c1ccc(Cl)cc1 [Compound 129]" tested_on=UniProt:P35354 property_measured=IC50 endpoint_result="0.067 µM"

Let us examine a further case.
What does the record list as IC50 for CC[C@@H](C)NC(=O)Cn1nc(Cc2cc(C)c(C(=O)c3ccc(Cl)cc3)n2C)ccc1=O [Compound 158] ? 0.68 µM
